Tested on: β-galactosidase in CMV-LacZ C2C12 myoblasts
Test: CMV-LacZ secondary screen in C2C12 myoblasts (β-Gal stabilizing assay)
Format: cell-based, mouse
Conditions: 40 uM; CMV-LacZ C2C12 myoblasts
Below, each entry is listed with its recorded CMV-LACZ in Myoblasts (β-galactosidase activity relative to DMSO).
readout type: CMV-LACZ in Myoblasts (β-galactosidase activity relative to DMSO)

compound: N#C/C(=C/c1ccc(N2CCOCC2)o1)C(=O)Nc1ccccc1
obs value: 1.6337
--
compound: Cn1c(O)c(C(C#N)=C2N=c3ccccc3=N2)c2ccccc21
obs value: 2.4896
--
compound: Cc1cccc(C)c1NCC(=O)N1CCN(Cc2ccccc2)CC1.Cl
obs value: 1.0763
--
compound: COc1ccc(NC(=O)C2(N(C(=O)Cn3nnnc3N)c3ccc(OC)cc3)CCCCC2)cc1
obs value: 0.5556
--
compound: COc1ccccc1NS(=O)(=O)c1cc(NC(=O)c2ccc(Cl)nc2)ccc1N1CCCC1
obs value: 1.0270
--
compound: COc1ccc(Cl)cc1NC(=O)c1cc(-c2cc(C)ccc2O)n[nH]1
obs value: 0.7441
--
compound: NS(=O)(=O)c1ccc(NC(=O)CN2CCc3ccccc32)cc1
obs value: 1.0091
--
compound: COc1ccc(CNC(=O)C2CCCN(S(=O)(=O)c3c(C)noc3/C=C/N(C)C)C2)cc1 (centres unmarked)
obs value: 0.3278

###

System: α7 integrin (LacZ reporter in α7βgal+/− myoblasts)
Assay: Myoblast α7+/LacZ integrin FDG assay (Burkin assay in myoblasts, 96-well)
Assay type: cell-based, mouse
Conditions: 5 uM; α7+/LacZ myoblasts, 96-well
readout type: Burkin Assay in Myoblasts, value relative to DMSO

molecule: CCCCS(=O)(=O)N1CCCC(C(=O)NCCc2ccccc2)C1 (stereo not shown)
obs value: 0.9488
//
molecule: O=C(NCc1ccccc1)C(c1ccc(O)cc1)N(C(=O)Cn1nnc(-c2cccs2)n1)c1ccc2c(c1)OCCO2 (stereo not shown)
obs value: 0.7862
//
molecule: C=CCN(CC=C)C(=O)c1ccc(OC2CCN(S(=O)(=O)N(C)C)CC2)cc1
obs value: 0.8647
//
molecule: CN(C)S(=O)(=O)c1cccc(C(=O)Nc2ccc3c(c2)CCC3)c1
obs value: 1.097

###

Tested on: α7 integrin (LacZ reporter in α7βgal+/− myoblasts)
Assay: Myoblast α7+/LacZ integrin FDG assay (Burkin assay in myoblasts, 96-well)
Assay type: cell-based, mouse
Settings: 10 uM; α7+/LacZ myoblasts, 96-well
readout type: Burkin Assay in Myoblasts, signal relative to DMSO

compound: NC(=O)c1cccnc1Oc1ccc(Cl)cc1Cl
obs value: 0.9772
//
compound: Cc1ccc(NS(=O)(=O)c2ccc3c(c2)NC(=O)CCS3)c(Br)c1
obs value: 0.8637
//
compound: COc1ccc(CNC(=O)COC(=O)CCc2c[nH]c3ccccc23)cc1
obs value: 0.9282
//
compound: Cc1ccc(S(=O)(=O)N2CN(CC3CCCO3)c3nc4ccccc4nc32)c(C)c1 (stereo not drawn)
obs value: 0.9225
//
compound: CC(C)(C)NC(=O)NC(=O)CN1CCN(Cc2ccccc2)CC1
obs value: 1.172
//
compound: CN(/C(=N/S(=O)(=O)c1cccs1)c1ccccc1)c1ccccc1
obs value: 0.9807
//
compound: CCCOc1nc(SCCC)nc2c1cnn2-c1ccccc1
obs value: 1.08
//
compound: COc1ccc(CCNC(=O)Cn2nnc(C(=O)Nc3ccc(Br)cc3)c2N)cc1OC
obs value: 0.9298
//
compound: O=C(NCCc1ccc(Cl)cc1)C1CCCO1 (stereo not drawn)
obs value: 1.034
